- assay.protocol: self-splicing fitness, log relative to wild type (ln ratio); higher = more splicing; Tetrahymena group I intron in knt gene, E. coli kanamycin selection, DiMSum; sequences stand for … in CUCUCU…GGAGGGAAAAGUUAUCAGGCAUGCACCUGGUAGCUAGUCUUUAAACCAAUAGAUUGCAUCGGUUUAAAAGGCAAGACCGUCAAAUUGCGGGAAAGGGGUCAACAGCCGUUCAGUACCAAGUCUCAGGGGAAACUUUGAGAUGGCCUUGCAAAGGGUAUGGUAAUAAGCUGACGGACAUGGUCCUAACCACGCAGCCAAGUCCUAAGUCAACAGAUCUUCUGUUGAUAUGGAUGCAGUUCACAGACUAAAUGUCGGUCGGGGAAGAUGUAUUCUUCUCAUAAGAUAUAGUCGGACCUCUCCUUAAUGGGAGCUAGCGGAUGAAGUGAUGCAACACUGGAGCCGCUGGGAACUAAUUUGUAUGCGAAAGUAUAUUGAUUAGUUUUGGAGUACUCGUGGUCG;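 note: selection with 25 µg/mL kanamycin versus none on LB agar overnight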
- test.parameters: 30 °C

seq.string: UAAAAGCAAUAUUACGGUCG
self-splicing fitness (ln): -0.35

seq.string: CCAAAGCAAUAUUACGAGUA
self-splicing fitness (ln): -3.15

seq.string: UCGCAGCAAUAUUACGGAGC
self-splicing fitness (ln): -3.54

seq.string: UGAAAGCAAUAUUACGUGGG
self-splicing fitness (ln): -3.67

seq.string: CCACAGCAAUAUUACGGGUC
self-splicing fitness (ln): -3.86

seq.string: CCCGAGCAAUAUUACGCGGA
self-splicing fitness (ln): -3.21

seq.string: GCGUAGCAAUAUUACGACAG
self-splicing fitness (ln): -2.66

seq.string: ACGCAGCAAUAUUACGGCGA
self-splicing fitness (ln): -0.895

seq.string: UAACAGCAAUAUUACGUAAC
self-splicing fitness (ln): -2.93

seq.string: ACUCAGCAAUAUUACGGCCC
self-splicing fitness (ln): -1.32

seq.string: UUAGAGCAAUAUUACGUGGG
self-splicing fitness (ln): -3.41

seq.string: UAGAAGCAAUAUUACGCACC
self-splicing fitness (ln): -2.13

seq.string: UGCAAGCAAUAUUACGUACG
self-splicing fitness (ln): -0.89

seq.string: UGAUAGCAAUAUUACGCGAG
self-splicing fitness (ln): -1.66

seq.string: AGGGAGCAAUAUUACGGACC
self-splicing fitness (ln): -2.79

seq.string: CGAUAGCAAUAUUACGCCGA
self-splicing fitness (ln): -1.92

seq.string: UGAAAGCAAUAUUACGAACC
self-splicing fitness (ln): -1.55

seq.string: AACAAGCAAUAUUACGCCGA
self-splicing fitness (ln): -1.45

seq.string: CUCAAGCAAUAUUACGUCGG
self-splicing fitness (ln): -2.02

seq.string: CUUGAGCAAUAUUACGCUAG
self-splicing fitness (ln): -3.17

seq.string: UUGUAGCAAUAUUACGGACC
self-splicing fitness (ln): -2.38

seq.string: CGGGAGCAAUAUUACGUGUG
self-splicing fitness (ln): -2.47

seq.string: GGUUAGCAAUAUUACGCCUG
self-splicing fitness (ln): -2.89

seq.string: CCAUAGCAAUAUUACGAGAA
self-splicing fitness (ln): -0.566

seq.string: AAUUAGCAAUAUUACGAGUA
self-splicing fitness (ln): -1.86

seq.string: GGAAAGCAAUAUUACGGCCA
self-splicing fitness (ln): -0.368

seq.string: CGUCAGCAAUAUUACGCUUC
self-splicing fitness (ln): -3.46

seq.string: UUGAAGCAAUAUUACGGCAC
self-splicing fitness (ln): -0.928

seq.string: ACCGAGCAAUAUUACGUCGU
self-splicing fitness (ln): -3.09

seq.string: CCCUAGCAAUAUUACGACGU
self-splicing fitness (ln): -3.83

seq.string: CGUCAGCAAUAUUACGGUAG
self-splicing fitness (ln): -0.184

seq.string: AGGAAGCAAUAUUACGAUCU
self-splicing fitness (ln): -0.809

seq.string: AUGGAGCAAUAUUACGCAUC
self-splicing fitness (ln): -3.74

seq.string: UUUGAGCAAUAUUACGAACC
self-splicing fitness (ln): -2.5

seq.string: UGGAAGCAAUAUUACGGGGA
self-splicing fitness (ln): -2.19

seq.string: GAUUAGCAAUAUUACGGUUA
self-splicing fitness (ln): -0.842

seq.string: ACCGAGCAAUAUUACGAGGC
self-splicing fitness (ln): -4.59

seq.string: GAGGAGCAAUAUUACGGGCC
self-splicing fitness (ln): -2.4

seq.string: CCCAAGCAAUAUUACGCAAG
self-splicing fitness (ln): -3.34

seq.string: UUCUAGCAAUAUUACGUCCG
self-splicing fitness (ln): -1.45

seq.string: GCCCAGCAAUAUUACGCUUG
self-splicing fitness (ln): -3.45

seq.string: CCGCAGCAAUAUUACGUCGG
self-splicing fitness (ln): -3.9

seq.string: AUCGAGCAAUAUUACGGGCG
self-splicing fitness (ln): -2.97

seq.string: CAGGAGCAAUAUUACGCUGC
self-splicing fitness (ln): -4.3

seq.string: CGGAAGCAAUAUUACGGUGA
self-splicing fitness (ln): -1.64

seq.string: AGGUAGCAAUAUUACGUGAG
self-splicing fitness (ln): -1.02

seq.string: AUUCAGCAAUAUUACGCUCC
self-splicing fitness (ln): -0.31

seq.string: UAAUAGCAAUAUUACGCCAG
self-splicing fitness (ln): -1.07

seq.string: GGCUAGCAAUAUUACGAUCG
self-splicing fitness (ln): -0.651

seq.string: GACGAGCAAUAUUACGUUGG
self-splicing fitness (ln): -3.34

seq.string: ACACAGCAAUAUUACGUGUU
self-splicing fitness (ln): -3.16

seq.string: GAAGAGCAAUAUUACGUAUA
self-splicing fitness (ln): -2

seq.string: CAUCAGCAAUAUUACGGGUC
self-splicing fitness (ln): -2.63

seq.string: AUCUAGCAAUAUUACGGAGC
self-splicing fitness (ln): -3.43

seq.string: UGUUAGCAAUAUUACGGGUC
self-splicing fitness (ln): -2.97

seq.string: GCAUAGCAAUAUUACGUAUC
self-splicing fitness (ln): -3.24

seq.string: UUUUAGCAAUAUUACGAUCG
self-splicing fitness (ln): -0.15

seq.string: AGGCAGCAAUAUUACGCGCA
self-splicing fitness (ln): -0.635

seq.string: CCCUAGCAAUAUUACGCAGC
self-splicing fitness (ln): -3

seq.string: ACCAAGCAAUAUUACGACAC
self-splicing fitness (ln): -1.29

seq.string: AAUAAGCAAUAUUACGGUGC
self-splicing fitness (ln): -3

seq.string: UGUCAGCAAUAUUACGCUCG
self-splicing fitness (ln): -0.552

seq.string: UCCCAGCAAUAUUACGUGGG
self-splicing fitness (ln): -3.37
